# Test system: (R)-form-specific transaminase of Arthrobacter sp. KNK168
# assayComment: Influence of reaction inhibitors on purified transaminase of present invention
# Assay type: biochemical
# testContext: inhibitor 1 mM; without addition = 100
# Transaminase of Present Invention (Relative Activity: %) with inhibitor >= 40% gives rule met, anything below gives rule not met

Sample answers from the record:
1) NO [Hydroxylamine] :: rule not met
2) O=C(O)c1cc[c]([Hg][Cl])cc1 :: rule met
3) NC1C=CC=C(C(=O)O)C1 (racemic) :: rule not met
4) NNc1ccccc1 [Phenylhydrazine] :: rule met

Query compound follows.
Q: Answer whether Transaminase of Present Invention (Relative Activity: %) with inhibitor of `O=S(=O)([O-])[O-].[Cu+2]` is greater than or equal to 40%.
A: rule met

----------
# Relative Activity (%) of amino compounds values compiled below
# Tested on: (R)-form-specific transaminase of Arthrobacter sp. KNK168
# assayComment: Reactivity of purified transaminase of present invention to amino compounds, pyruvic acid as amino acceptor
# Assay type: biochemical
# testContext: purified enzyme; 40 mM amino compound in substrate solution, 40 mM pyruvic acid, pH 8.3, 30° C., 1 hour; (R)-1-phenylethylamine = 100

Check out these entries, answers already filled in.
1) COc1ccc(C[C@@H](C)N)cc1OC [(R)-3,4-Dimethoxyaminopropane] :: 30%
2) C[C@@H](N)c1ccccc1 [(R)-1-Phenylethylamine] :: 100%
3) N[C@H](CO)Cc1ccccc1 [L-Phenylalaninol] :: 0.8%
4) NCc1ccccc1 [Benzylamine] :: 0.8%
5) N[C@H](CO)c1ccccc1 [(S)-2-Phenylglycinol] :: 180%
6) CCCCCC(C)N (stereo not drawn) [2-Heptylamine] :: 37%

Q: Bench note: what Relative Activity (%) of amino compounds did CCCCCCC(C)N (stereo not drawn) [1-Methylheptylamine] show?
A: 47%

Q: Request the reported Relative Activity (%) of amino compounds associated with CCC(C)N (stereo not drawn) [1-Methylpropylamine]
A: 1.2%

Q: // Relative Activity (%) of amino compounds lookup, key: CC(N)CCc1ccccc1 (stereo not drawn) [3-Aminophenylbutane]
A: 84%

----------
# Test system: Arthrobacter species KNK168 strain
# assayComment: Inducer added to culture medium; (R)-DMA formation by the separated cells
# Type: cell-based
# testContext: cells reacted 30° C., 20 hours, 1% 1-(3,4-dimethoxyphenyl)-2-propanone, 1% (RS)-1-methylpropylamine
# reported (R)-DMA Formed (%), inducer in culture medium; entries follow
Quick note: give the figure in %, leave out the unit.

1. CCC(N)CO (racemic) [(RS)-2-Amino-1-butanol] :: 12.9

Q: What value of measured (R)-DMA Formed (%), inducer in culture medium is listed for CCC(C)N (racemic) [(RS)-1-Methylpropylamine] ?
A: 22.3

Q: Field request: (R)-DMA Formed (%), inducer in culture medium | item: CC(N)c1ccccc1 (racemic) [(RS)-1-Phenylethylamine]
A: 8.0

Q: Return reported (R)-DMA Formed (%), inducer in culture medium; argument: COc1ccc(C[C@@H](C)N)cc1OC [(R)-DMA]
A: 0.9

Q: Which (R)-DMA Formed (%), inducer in culture medium reading was recorded for the compound CCCC(C)N (racemic) [(RS)-1-Methylbutylamine] ?
A: 13.0

Q: Entry CC(N)C(C)(C)C (racemic) [(RS)-3-Amino-2,2-dimethylbutane] has what (R)-DMA Formed (%), inducer in culture medium?
A: 18.6
